// provenance: patent US20240309103A1

// reported 100 nM Ag Bound (RU) for each item listed
- Tested system: T1, human NPR1 extracellular domain expressed with a C-terminal mouse IgG2a (hNPR1-mFc) (human)
- T1 construct: also called hNPR1-Fc; human NPR1 dimer
- T1 chain: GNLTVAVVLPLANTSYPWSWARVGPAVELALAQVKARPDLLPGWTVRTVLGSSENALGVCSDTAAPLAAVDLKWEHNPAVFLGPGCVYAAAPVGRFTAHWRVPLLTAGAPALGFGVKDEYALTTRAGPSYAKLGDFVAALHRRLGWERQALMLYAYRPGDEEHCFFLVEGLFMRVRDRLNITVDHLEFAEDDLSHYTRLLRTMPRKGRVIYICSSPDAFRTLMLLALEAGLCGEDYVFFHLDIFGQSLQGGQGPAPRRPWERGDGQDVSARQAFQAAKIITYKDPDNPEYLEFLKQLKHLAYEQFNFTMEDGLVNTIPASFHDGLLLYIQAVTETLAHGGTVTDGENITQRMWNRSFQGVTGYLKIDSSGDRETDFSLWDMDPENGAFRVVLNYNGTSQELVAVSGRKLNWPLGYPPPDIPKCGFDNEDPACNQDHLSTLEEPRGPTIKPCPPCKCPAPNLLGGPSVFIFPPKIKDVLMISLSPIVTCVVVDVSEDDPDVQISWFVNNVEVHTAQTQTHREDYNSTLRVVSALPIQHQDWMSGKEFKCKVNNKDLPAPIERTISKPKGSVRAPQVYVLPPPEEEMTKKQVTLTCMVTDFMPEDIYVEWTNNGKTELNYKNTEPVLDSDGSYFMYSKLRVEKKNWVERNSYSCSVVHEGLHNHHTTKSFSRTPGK
- Assay remarks: SPR, mAb captured, 37 C
Kindly answer with a numeric value in RU, unit omitted.

# Binder, Quantity measured, Experimental value
measured = [
    ("mAb25479 (antibody, V domains shown) VH: QVQLVQSGAEVKKPGASVKVSCKASGYTFTGYYIHWVRQAPGQGLEWMGWINPNSIGTNYAQKFQGRVTLTRDTSISTAYMELSSLRSDDTAVYYCARGGSSSYYYYYYGMDVWGQGTTVTVSS VL: DIQMTQSPSSLSASVGDRVTITCRASQSIDNYLNWYQQKPGKAPKLLIYVASSLQSGVPSRFSGSGSGTDFTLTISSLQPEDFATYYCQQSYSTPLTFGGGTKVEIK", "100 nM Ag Bound (RU)", 47),
]

IN: # get_value(readout='100 nM Ag Bound (RU)', item= mAb25497 (antibody, V domains shown) VH: QVQLVQSGAEVKEPGASVKVSCKASGYTFTDYYIHWVRQAPGQGLEWMGWINLNSGGKNHAQKFQGRVTVTSDTSINTAYIELGRLRGDDTAVYYCSRGGGSHYYYYYHGMDVWGQGTTVTVSS VL: DIQMTQSPSSLSASVGDRITITCRASHSIDSYLNWYQQKPGKAPKLLIYPASTLQSGVPSRFSGSGSGTDFTLTISSLQPEDSAIYYCQQSYSTPLTFGGGTKVEIK )
OUT: 43

IN: Would you mind doing mAb22809 (antibody, V domains shown) VH: QLQLRESGPGLVKPSETLSLTCTVSGGSINDNSFFWDWIRQTPGRGLEWIGNIFFDGNTYYTPSLKSRVIISVDMSQNQFSLRLTSVTAADTALYYCARHKRSMTAWGFFDYWGQGTLVTVSS VL: DIQMTQSPSSLSASVGDRVTITCRASKRINTYLNWYQQKPGKAPKVLIYSASNLQSGVPSRFSGSGSGTDFTLTINSLQPEDFATYFCQQSFSAPPITFGQGTRLEIK as well?
OUT: -1

IN: Would you mind doing mAb22810 (antibody, V domains shown) VH: EVQLVESGGGLVKPGGSLRLSCVVSGFTFRIYTMNWVRQAPGKGLEWVASISSSSSFINYADSLKGRFTISRDNAQNSLYLQMNSLRAEDTAIYYCARAAGNDVLPGRMDVWGQGTSVTVSS VL: EIVLTQSPGTLSLSPGERATLSCRASQSVSSNYLAWYQQKPGQVPSLLIYGASSRATGIPDRFSGSGSGTDFTLTITRLEPEDFAVYYCQQYGISPWTFGQGTKVEIK as well?
OUT: 9

IN: Would you mind doing mAb22805 (antibody, V domains shown) VH: QVQLVESGGGVVQPGRSLRLSCAASGFTFSTYGMHWVRQAPGKGLEWVALIWNDGSNKYYADSVKGRFTISRDNSKNTLDLQMNSLRAEDTAVYYCARLNTRITGTTNLDYWGQGTLVTVSS VL: DIQMTQSPSSLSASVGDRVTVSCRASQSIANYLNWYQQKPGKAPNLLIYGAYTLQSGVPSRFRGSGSGTDFTLTISSLQPEDFATYYCQQTYSTPPITFGQGTRLEIK as well?
OUT: 8

IN: Would you mind doing mAb22033 (antibody, V domains shown) VH: QVQLVQSGAEVKKPGASVTVSCKASGYTFTDYYMHWVRQAPGQGLEWMGWIKPNSGGTNSAQRFQGRITMTWDTSISTAYMELSRLRSDDTAVYYCSRGGPVMNYYYYYGMDVWGQGTTVTVSS VL: NIQMTQSPSSLSASVGDRVTITCRASQSIDSYLNWYQQKPGKAPKLLIYVASSLQSGVPSRFSGSGSGKDFTLTISSLQPEDFATYYCQQSYSIPTFGQGTRLEIK as well?
OUT: 75

IN: Would you mind doing mAb22035 (antibody, V domains shown) VH: EVQLVESGGGLVQPGRSLRLSCAASGFTFDDYAMHWVRQAPGKGLEWVSGISWNSGTIGYADSVKGRFTMSRDNAKNSLYLQMNSLRPEDTALYYCAKDMGVSLALWGAFDIWGQGTMVTVSS VL: DIQMTQSPSSLSASVGDKVTITCRASQNIRTYLNWYQQKPGKAPKVLISTASSLQSGVPSRFSGSGSGTDFTLTISSLQPEDFAVFYCQQSFGIPRTFGQGTKVEIK as well?
OUT: 257

IN: Would you mind doing mAb25508 (antibody, V domains shown) VH: EVQLVESGGGVVRPGGSLRLSCAASGFNVDDYGMSWVRQIPGKGLEWISGINWNGGRIYYADSMKGRITISRDNAKNSLYLQMNSLRAEDTALYHCVRDQWLVRGLDYWGQGTLVTVSS VL: DIQMTQSPSSLSASVGDRVTITCRASQGIYNYLAWFQQKPGKAPKSLIYAASSLQSGVPSKFSGSGSGTDFTLTISSLQPEDFATYYCQQYNTYPYTFGQGTKLEIK as well?
OUT: 242

IN: Would you mind doing mAb25491 (antibody, V domains shown) VH: QVQLVQSGAEVMKPGASVKVSCKASGYTFTGYYIHWVRQAPGQGLEWMGWITPNSGATNYAQKFQGRVTLTRDTSISTAYMELTRLKSDDTAVYYCARGGQLEFFYYYYGMDVWGQGTTVTVSS VL: DIQMTQSPSSLSASAGDRVTITCRASQSIDSYLNWYQQKPGKAPKLLISATSGFQSGVPSRFSGSGSGTDFTLTISSLQPEDFGTYYCQQSYTTPITFGQGTRLEIK as well?
OUT: 70
